- subjectOfTest: human m3 muscarinic acetylcholine receptor expressed in CHO cells (Homo sapiens, UniProt P20309)
- Construct: purchased Receptor Biology, Inc; host or cells: CHO cells
- Sequence (P20309 whole entry): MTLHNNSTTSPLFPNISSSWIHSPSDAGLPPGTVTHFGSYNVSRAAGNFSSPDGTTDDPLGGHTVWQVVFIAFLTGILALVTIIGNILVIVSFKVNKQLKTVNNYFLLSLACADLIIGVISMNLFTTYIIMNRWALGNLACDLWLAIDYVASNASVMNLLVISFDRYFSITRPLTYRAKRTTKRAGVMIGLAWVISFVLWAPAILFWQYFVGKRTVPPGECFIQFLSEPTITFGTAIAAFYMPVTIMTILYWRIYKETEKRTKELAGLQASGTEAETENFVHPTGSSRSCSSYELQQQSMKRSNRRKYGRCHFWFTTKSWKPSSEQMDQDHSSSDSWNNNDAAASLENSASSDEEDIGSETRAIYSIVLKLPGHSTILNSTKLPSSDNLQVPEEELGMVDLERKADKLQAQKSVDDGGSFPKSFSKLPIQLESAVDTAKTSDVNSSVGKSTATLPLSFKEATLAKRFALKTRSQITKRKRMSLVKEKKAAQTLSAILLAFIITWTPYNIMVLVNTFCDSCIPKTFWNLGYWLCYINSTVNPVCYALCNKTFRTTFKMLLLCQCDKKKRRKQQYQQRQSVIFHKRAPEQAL
- assayMethodText: Inhibition of [3H]-N-methylscopolamine binding to muscarinic m3 receptor
- statedConditions: ratio of Ki m5 to Ki m3
outcomeMeasure: Selectivity m5/m3

Observe how each entry below is paired with its result.
INSERT INTO assay_data (compound, resultvalue) VALUES
  ('O=C(CCCCCNC(=O)CC(c1ccccc1)(c1ccccc1)c1ccccc1)NC[C@H]1CCCN(CC2CCCCC2)C1', '180 times'),
  ('O=C(CCNC(=O)CNC(=O)CC(c1ccccc1)(c1ccccc1)c1ccccc1)NC[C@H]1CCCN(CC2CCCCC2)C1', '84 times'),
  ('CC[C@H](C)C[N+]1(CC)CCC[C@@H](CNC(=O)CCCCCNC(=O)CC(c2ccccc2)(c2ccccc2)c2ccccc2)C1.[Cl-] (stereo partly drawn)', '180 times');

Suppose we examine the compound "O=C(CCNC(=O)[C@H](Cc1c[nH]cn1)NC(=O)CC(c1ccccc1)(c1ccccc1)c1ccccc1)NC[C@H]1CCCN(CC2CCCCC2)C1" ; what Selectivity m5/m3 value has been reported?
25 times

Same question for "CCCCCN1CCC[C@H](CNC(=O)CCNC(=O)CNC(=O)CC(c2ccccc2)(c2ccccc2)c2ccccc2)C1" please.
46 times

Same question for CCCCCCC[N+]1(C)CCC[C@H](CNC(=O)CCNC(=O)CNC(=O)CC(c2ccccc2)(c2ccccc2)c2ccccc2)C1.[Br-] (stereo partly drawn) please.
33 times
